Provide the reported CC50 of each item.
# Test system: MT4 CMV-EGFP cells
# procedure-summary: Cytotoxicity in mock-infected MT4 CMV-EGFP cells
# Format: cell-based, human
# settings: fluorescence reduced by 50%

The compound listed as "N#Cc1cc2cc(OCCN)ccc2n(-c2ccc([N+](=O)[O-])cc2)c1=O" has a reported CC50 of > 32 µM

Measured CC50, "Cc1ccc(-n2c(=O)c(C#N)c(N)c3ccc(Cl)cc32)cc1C#N" : > 100 µM

// CC50 lookup, compound = "N#Cc1cc2ccc(NCCN)cc2n(-c2ccc([N+](=O)[O-])cc2)c1=O" , result: > 32 µM

Record summary for "N#Cc1cc2ccc(OCCCN)cc2n(-c2ccc(Cl)nc2)c1=O" : reported CC50 = > 32 µM
